molecular target: Gastrin/cholecystokinin type B receptor (Rattus norvegicus) (UniProt P30553); experiment: Activity in vivo gastrin-induced acid secretion in rats; type: functional, organism-based
Sequence (P30553 whole entry): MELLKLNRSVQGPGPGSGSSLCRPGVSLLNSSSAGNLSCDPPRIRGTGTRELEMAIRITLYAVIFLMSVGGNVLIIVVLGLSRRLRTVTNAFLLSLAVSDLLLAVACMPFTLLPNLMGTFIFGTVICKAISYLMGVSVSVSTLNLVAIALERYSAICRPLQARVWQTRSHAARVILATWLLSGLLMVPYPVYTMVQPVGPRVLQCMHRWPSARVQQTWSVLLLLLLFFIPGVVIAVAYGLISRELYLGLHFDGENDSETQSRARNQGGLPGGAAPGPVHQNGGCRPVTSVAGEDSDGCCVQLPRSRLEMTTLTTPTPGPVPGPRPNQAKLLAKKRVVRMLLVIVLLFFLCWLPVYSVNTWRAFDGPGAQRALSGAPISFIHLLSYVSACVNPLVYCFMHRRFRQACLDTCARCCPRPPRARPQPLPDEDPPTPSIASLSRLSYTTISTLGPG
Please use 1.0 for ED50 under 2 mg/kg and 0.0 for everything else, ties included.

Before answering, review these 4 worked examples.
[[record]]
compound = "CC(C)CC(CC(=O)N[C@H](CC(=O)O)C(=O)N[C@H](Cc1ccccc1)C(N)=O)NC(=O)C(Cc1c[nH]c2ccccc12)NC(=O)OC(C)(C)C (stereo partly specified)"
category_label = 0.0

[[record]]
compound = "CC(C)CC(CC(=O)N[C@H](CC(=O)O)C(=O)NCc1ccccc1)NC(=O)C(Cc1c[nH]c2ccccc12)NC(=O)OC(C)(C)C (stereo partly specified)"
category_label = 1.0

[[record]]
compound = "CC(C)C[C@H](NC(=O)[C@H](Cc1c[nH]c2ccccc12)NC(=O)OC(C)(C)C)C(=O)N[C@H](CC(=O)O)CC(=O)NCc1ccccc1"
category_label = 1.0

[[record]]
compound = "CC(C)C[C@@H](CC(=O)NC(CC(=O)O)C(=O)NCc1ccccc1)NC(=O)[C@@H](Cc1c[nH]c2ccccc12)NC(=O)OC(C)(C)C (stereo partly specified)"
category_label = 0.0


Regarding "CC(C)C[C@H](NC(=O)[C@H](Cc1c[nH]c2ccccc12)NC(=O)OC(C)(C)C)C(=O)N[C@H](CC(=O)O)CC(=O)NCCc1ccccc1" , kindly confirm whether its ED50 is beneath 2 mg/kg. 1.0

Regarding CC(C)CC(NC(=O)[C@@H](Cc1c[nH]c2ccccc12)NC(=O)OC(C)(C)C)C(=O)N[C@H](CC(=O)O)CC(=O)NC(Cc1ccccc1)C(N)=O (stereo in doubt) , kindly confirm whether its ED50 is beneath 2 mg/kg. 0.0

Origin of measurements: ChEMBL document CHEMBL1124407
